# MEASUREMENT NOTES: chemical genetic growth profiling, strain panel (AID 1159580);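 note: tested at 20 µM; growth read once vehicle control cultures reached saturation at 30 °C; lower values mean less growth of the strain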
# SETTINGS: S. cerevisiae deletion strains, growth OD, locus YLR330W, strain CHS5
Among all 5,500 compounds or so, about 2,000 (36%) were called active. Another 18% or so got no clear call; they are omitted. Cut-off read from the data, not from the text of the source: active = normalized growth mostly below about 0.91 (no sharp cut-off); inconclusive = no clear call, values can overlap the other calls; inactive = mostly above about 0.92. This is one part of the list.
Possible outcomes: T for active, F for inactive

MOLECULE: CC1=C2[C@](C)(C=CC1=O)C[C@H](O)[C@H]1[C@H](C)C(=O)O[C@]21C
GROUP: F
//
MOLECULE: Nc1ncnc2c1ncn2[C@@H]1O[C@H](CO)[C@@H](O)[C@@H]1O
GROUP: F
//
MOLECULE: COc1cc(OC)cc(OC)c1
GROUP: F
//
MOLECULE: Cn1c(=O)[nH]c(=O)c2[nH]cnc21
GROUP: F
//
MOLECULE: O=c1cc(-c2ccc(O)cc2)oc2cc(O[C@@H]3O[C@H](CO)[C@@H](O)[C@H](O)[C@H]3O[C@@H]3OC[C@](O)(CO)[C@H]3O)cc(O)c12
GROUP: F
//
MOLECULE: CCCCCN=C(N)N/N=C\c1c[nH]c2ccc(OC)cc12
GROUP: F
//
MOLECULE: COP(=S)(OC)SCn1nnc2ccccc2c1=O
GROUP: F
//
MOLECULE: CCOC(=O)C1=C(C)NC(C)=C(C(=O)OC)C1c1cccc([N+](=O)[O-])c1 (stereo unspecified)
GROUP: F
//
MOLECULE: Fc1ccc(C(c2ccc(F)cc2)N2CCN(C/C=C/c3ccccc3)CC2)cc1
GROUP: F
//
MOLECULE: Cn1cnc([N+](=O)[O-])c1Sc1ncnc2nc[nH]c12
GROUP: F
//
MOLECULE: CSCCC(NC=O)C(=O)NC(CC(C)C)C(=O)NC(Cc1ccccc1)C(=O)O (stereo unspecified)
GROUP: F
//
MOLECULE: Nc1ncnc2nc[nH]c12
GROUP: T
//
MOLECULE: c1coc(CNc2ncnc3nc[nH]c23)c1
GROUP: F
//
MOLECULE: N#Cc1ccc2c(c1)N(CCCN1CCC(O)CC1)c1ccccc1S2
GROUP: F
//
MOLECULE: O=C1c2ccc(O)c(O)c2C(=O)c2c(O)ccc(O)c21
GROUP: F
//
MOLECULE: CCCCC/C=C\C/C=C\C/C=C\C/C=C\CCCC(=O)O
GROUP: F
//
MOLECULE: COc1cc(O)c(C)c(O)c1
GROUP: F
//
MOLECULE: CCNc1nc(Cl)nc(NC(C)C)n1
GROUP: F
//
MOLECULE: Cc1cccc(N(C)C(=S)Oc2ccc3ccccc3c2)c1
GROUP: F
//
MOLECULE: COc1cc2ccc(=O)oc2cc1O
GROUP: F
//
MOLECULE: CC(=O)OC1CCC2C3CCc4cc(O)ccc4C3CCC12C (stereo unspecified)
GROUP: F
//
MOLECULE: COc1cc(O)c(C(=O)c2ccccc2)c(OC)c1
GROUP: F
//
MOLECULE: O=[N+]([O-])/N=C1/NCCN1Cc1ccc(Cl)cc1
GROUP: F
//
MOLECULE: COc1ccc2c(=O)c(-c3cc4c(cc3OC)OCO4)coc2c1
GROUP: F
//
MOLECULE: CCN(CC)CCNC(=O)COc1ccc(OC)cc1
GROUP: F
//
MOLECULE: CC(C)=CCOc1c2occc2cc2ccc(=O)oc12
GROUP: T
//
MOLECULE: Cc1c(N(C)CS(=O)(=O)O)c(=O)n(-c2ccccc2)n1C
GROUP: F
//
MOLECULE: CCCC(=O)Nc1ncnc2c1ncn2C1O[C@@H]2COP(=O)(O)O[C@H]2[C@H]1OC(=O)CCC (stereo partly specified)
GROUP: F
//
MOLECULE: CC(=O)Oc1ccc2c(c1)CCC1C2CC[C@@]2(C)C1CC[C@@H]2OC(C)=O (stereo partly specified)
GROUP: F
//
MOLECULE: COc1cc2ccc(=O)oc2c(O)c1O
GROUP: F
//
MOLECULE: N#C/C(=C\c1ccc(O)cc1)C(=O)O
GROUP: F
//
MOLECULE: CC(C)=CCC1=C(O)c2ccccc2C(=O)C1=O
GROUP: F
//
MOLECULE: NCCS
GROUP: F
//
MOLECULE: C[C@]12CCC3c4ccc(O)cc4CCC3C1CC[C@@H]2OC(=O)CCC1CCCC1 (stereo partly specified)
GROUP: F
//
MOLECULE: COc1c2c(cc3occ(-c4ccc5c(c4)OCO5)c(=O)c13)OC(C)(C)C=C2
GROUP: F
//
MOLECULE: CCCCC(=O)N(Cc1ccc(-c2ccccc2-c2nn[nH]n2)cc1)[C@H](C(=O)O)C(C)C
GROUP: F
//
MOLECULE: O=c1[nH]cnc2nc[nH]c12
GROUP: F
//
MOLECULE: CCCc1nc(C(C)(C)O)c(C(=O)OCc2oc(=O)oc2C)n1Cc1ccc(-c2ccccc2-c2nn[nH]n2)cc1
GROUP: F
//
MOLECULE: Cc1cc(O)c2c(c1O)C(=O)c1c(O)cc(C)c(O)c1C2=O
GROUP: F
//
MOLECULE: C[N+]1(C)C2CC[C@H]1CC(OC(=O)C(O)c1ccccc1)C2 (stereo partly specified)
GROUP: F
//
MOLECULE: CC(=O)N[C@@H](CC(=O)O)C(=O)O
GROUP: F
//
MOLECULE: CC(=O)OCC(=O)[C@@]1(O)CCC2C3CCC4=CC(=O)CC[C@]4(C)[C@@]3(F)[C@@H](O)C[C@@]21C (stereo partly specified)
GROUP: F
//
MOLECULE: CC(C)(O)CC[C@@H](O)[C@](C)(O)C1CC[C@@]2(O)C3=CC(=O)C4C[C@@H](O)[C@@H](O)C[C@]4(C)C3CC[C@]12C (stereo partly specified)
GROUP: F
//
MOLECULE: O=c1n(CCCN2CCN(c3cccc(Cl)c3)CC2)nc2ccccn12
GROUP: F
//
MOLECULE: COc1ccc2c(=O)c(CC(=O)O)coc2c1
GROUP: F
//
MOLECULE: Cc1cc(C)nc(NS(=O)(=O)c2ccc(N)cc2)n1
GROUP: F
